test: nonselective antagonists in TAAR1 counter-screen cells, counter-screen for hTAAR1 antagonist project, cell-based, fluorescence, calcium (AID 651780); conditions: counterscreen cell line, antagonist mode, at 3 µM, stronger effect = higher value;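 further: CHO-Ga16 host cells stimulated with ATP at an EC80 level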
About 1,800 (75%) of roughly 2,400 compounds were called active. So high a share suggests a set chosen from earlier hits. These entries were drawn from the full list.
Where inhibition equals or exceeds 30%, the correct label is true; where it does not, the label is false.

>>> class_name("COc1ccc2[nH]c(=O)c(CN(Cc3cccnc3)S(=O)(=O)c3ccccc3F)cc2c1")
"true"
>>> class_name("COC(=O)Cc1nnn2c1[C@H](C)[C@H](c1ccccc1Br)OCC2")
"false"
>>> class_name("Cc1cc(Br)ccc1NC(=O)c1cnc(N2CCN(c3ccccn3)CC2)c2ccccc12")
"true"
>>> class_name("COc1ccc(C(=O)Oc2ccc(-c3nnco3)cc2)cc1S(=O)(=O)N1CCOCC1")
"false"
>>> class_name("O=C(Oc1ccc(-c2nnco2)cc1)c1ccc(F)c(S(=O)(=O)N2CCOCC2)c1")
"true"
>>> class_name("CCOc1ccc(N2CC(C(=O)N/N=C/c3sccc3C)CC2=O)cc1 (stereo not given)")
"false"
>>> class_name("Clc1ccc(Nc2ncnc3c2nnn3Cc2ccccc2)cc1")
"false"
>>> class_name("O=C(COC(=O)CCCSc1nc2ccccc2[nH]1)Nc1ccc(Oc2ccccc2)cc1")
"true"
>>> class_name("CCNS(=O)(=O)c1ccc(CCC(=O)N2CCN(c3cc(Cl)ccc3C)CC2)cc1")
"true"
>>> class_name("COc1ccc(Cl)cc1NC(=O)CCS(=O)(=O)c1cc2c(cc1C)NC(=O)CO2")
"false"
